This listing pairs molecules with measured pKi.
- Measured target: porcine pancreatic α-amylase (Sus scrofa, UniProt P00690)
- Procedure details: starch hydrolysis by α-amylase monitored by isothermal titration calorimetry (ITC)
- Type: biochemical
- Cond: uncompetitive inhibition constant; substrate starch, ITC; 100 μM polyphenol (EGCG 25 μM); read-out: Kiu
Conceptually, pKi converts a concentration in mol/L into minus its log10.

Record lookup: for porcine pancreatic α-amylase (Sus scrofa, UniProt P00690), what pKi belongs to O=C(O[C@@H]1Cc2c(O)cc(O)cc2O[C@@H]1c1cc(O)c(O)c(O)c1)c1cc(O)c(O)c(O)c1 [EGCG, epigallocatechin gallate] ?
4.59

###

- Measured target: porcine pancreatic α-amylase (Sus scrofa, UniProt P00690)
- Procedure details: starch hydrolysis by α-amylase monitored by isothermal titration calorimetry (ITC)
- Assay type: biochemical
- Cond: calculated based on the mass concentration; read-out: IC50 [g/L] (converted)
Readout name: IC50 (µM)
Field format: number, assumed µM, no unit text.

Here are 4 compounds together with their reported answers.
C[C@@H]1O[C@@H](OC[C@H]2O[C@@H](Oc3c(-c4ccc(O)c(O)c4)oc4cc(O)cc(O)c4c3=O)[C@H](O)[C@@H](O)[C@@H]2O)[C@H](O)[C@H](O)[C@H]1O [rutin, quercetin-3-O-rutinoside] : 770
O=c1c(O[C@@H]2O[C@H](CO)[C@@H](O)[C@H](O)[C@H]2O)c(-c2ccc(O)c(O)c2)oc2cc(O)cc(O)c12 [Q-3-glc, quercetin-3-O-glucoside] : 151
O=C(CCc1ccc(O)cc1)c1c(O)cc(O)cc1O[C@@H]1O[C@H](CO)[C@@H](O)[C@H](O)[C@H]1O [PHL, phlorizin] : 504
Oc1cc(O)c2c(c1)O[C@H](c1ccc(O)c(O)c1)[C@H](O)[C@H]2c1c(O)cc(O)c2c1O[C@H](c1ccc(O)c(O)c1)[C@H](O)C2 [PC B2, procyanidin B2] : 121

I'm curious: which IC50 was measured for Oc1cc(O)c2c(c1)O[C@H](c1ccc(O)c(O)c1)[C@H](O)[C@H]2c1c(O)cc(O)c2c1O[C@H](c1ccc(O)c(O)c1)[C@H](O)[C@H]2c1c(O)cc(O)c2c1O[C@H](c1ccc(O)c(O)c1)[C@H](O)C2 [PC C1, procyanidin C1] tested on porcine pancreatic α-amylase (Sus scrofa, UniProt P00690)?
104

Item: O=C(/C=C/c1ccc(O)c(O)c1)O[C@@H]1C[C@](O)(C(=O)O)C[C@@H](O)[C@H]1O [CA, Chlorogenic acid] Test system: porcine pancreatic α-amylase (Sus scrofa, UniProt P00690) Read-out: IC50 Value: ?
198

Hello, I am looking for reported IC50 with porcine pancreatic α-amylase (Sus scrofa, UniProt P00690) for Oc1cc(O)c2c(c1)O[C@H](c1ccc(O)c(O)c1)[C@H](O)C2 [EC, (−)-epicatechin] . Could you help?
482

Given the entry Oc1cc(O)c2c(c1)O[C@H](c1ccc(O)c(O)c1)[C@H](O)[C@H]2c1c(O)cc(O)c2c1O[C@H](c1ccc(O)c(O)c1)[C@@H](O)C2 [PC B1, procyanidin B1] , what IC50 was observed with porcine pancreatic α-amylase (Sus scrofa, UniProt P00690)?
190

###

List of remaining activity at 100 µM values.
- Measured target: UniProt P00690
- Sequence (P00690 16-511): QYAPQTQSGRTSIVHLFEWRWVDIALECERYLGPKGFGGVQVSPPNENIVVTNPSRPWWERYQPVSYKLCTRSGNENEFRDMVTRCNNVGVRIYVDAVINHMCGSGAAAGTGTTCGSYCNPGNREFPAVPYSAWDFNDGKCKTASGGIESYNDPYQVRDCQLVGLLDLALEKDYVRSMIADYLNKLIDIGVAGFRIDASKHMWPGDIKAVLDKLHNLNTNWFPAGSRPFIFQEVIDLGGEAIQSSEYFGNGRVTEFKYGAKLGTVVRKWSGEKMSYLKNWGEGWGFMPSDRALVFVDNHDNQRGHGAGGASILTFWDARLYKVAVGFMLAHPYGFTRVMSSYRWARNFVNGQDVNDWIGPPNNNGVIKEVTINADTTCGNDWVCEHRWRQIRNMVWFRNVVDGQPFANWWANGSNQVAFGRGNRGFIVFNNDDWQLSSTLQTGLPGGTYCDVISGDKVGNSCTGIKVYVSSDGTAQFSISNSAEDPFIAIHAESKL
- Procedure details: starch hydrolysis by α-amylase monitored by isothermal titration calorimetry (ITC)
- Assay type: biochemical
- Cond: 100 μM polyphenol, 26 nM α-amylase, starch, 310 K; relative to control without inhibitor; read-out: (dQ/dt)max [%]

C[C@@H]1O[C@@H](OC[C@H]2O[C@@H](Oc3c(-c4ccc(O)c(O)c4)oc4cc(O)cc(O)c4c3=O)[C@H](O)[C@@H](O)[C@@H]2O)[C@H](O)[C@H](O)[C@H]1O [rutin, quercetin-3-O-rutinoside] : 90%

Give recorded remaining activity at 100 µM with UniProt P00690 for the following compound: `Oc1cc(O)c2c(c1)O[C@H](c1ccc(O)c(O)c1)[C@H](O)[C@H]2c1c(O)cc(O)c2c1O[C@H](c1ccc(O)c(O)c1)[C@H](O)[C@H]2c1c(O)cc(O)c2c1O[C@H](c1ccc(O)c(O)c1)[C@H](O)C2`
44%

Request: remaining activity at 100 µM, test system UniProt P00690, entry OC[C@H]1O[C@@H](Oc2cc3c(O)cc(O)cc3[o+]c2-c2ccc(O)c(O)c2)[C@H](O)[C@@H](O)[C@@H]1O [CYD-3-glc, cyanidin-3-O-glucoside]
74%

###

- Measured target: porcine pancreatic α-amylase (Sus scrofa, UniProt P00690)
- Procedure details: starch hydrolysis by α-amylase monitored by isothermal titration calorimetry (ITC)
- Format: biochemical
- Cond: calculated based on the mass concentration; read-out: Kic [g/L] (converted)
- Experimental: The amylase stock solution was diluted each day and stored during the day at 4 °C. The experiments were conducted using an Affinity ITC LV instrument with a cell volume of 182 μL (TA Instruments, Eschborn, Germany). […] Enzyme kinetic constants were determined at 310 K. The heat released during starch conversion was continuously monitored, with calculations performed using Microsoft Excel® software. […] (dQ/dt)max [%], ΔRHapp [%] und vmax [%] are calculated in relation to daily control. […]
Readout name: Ki (µM)
Dear colleague, please return just the value in µM, with no unit written.

API: value(readout=Ki, system=porcine pancreatic α-amylase (Sus scrofa, UniProt P00690)) for record Oc1cc(O)c2c(c1)O[C@H](c1ccc(O)c(O)c1)[C@H](O)[C@H]2c1c(O)cc(O)c2c1O[C@H](c1ccc(O)c(O)c1)[C@H](O)[C@H]2c1c(O)cc(O)c2c1O[C@H](c1ccc(O)c(O)c1)[C@H](O)C2 [PC C1, procyanidin C1]
92.3

Give the reported Ki for Oc1cc(O)c2c(c1)O[C@H](c1ccc(O)c(O)c1)[C@H](O)C2 [EC, (−)-epicatechin] (system: porcine pancreatic α-amylase (Sus scrofa, UniProt P00690)).
379

Field: Ki (porcine pancreatic α-amylase (Sus scrofa, UniProt P00690)). Entry: Oc1cc(O)c2c(c1)O[C@H](c1ccc(O)c(O)c1)[C@H](O)[C@H]2c1c(O)cc(O)c2c1O[C@H](c1ccc(O)c(O)c1)[C@H](O)C2 [PC B2, procyanidin B2]
121

###

- Measured target: UniProt:P00690
- Procedure details: starch hydrolysis by α-amylase monitored by isothermal titration calorimetry (ITC)
- Type: biochemical
- Cond: 100 μM polyphenol; relative to control; read-out: vmax [%]
Parameter: remaining activity at 100 µM. Scope: all listed entries.
Put your answer as a value accompanied by its unit after it.

Worked cases, answers included:
O=C(CCc1ccc(O)cc1)c1c(O)cc(O)cc1O[C@@H]1O[C@H](CO)[C@@H](O)[C@H](O)[C@H]1O : 89%
O=C(/C=C/c1ccc(O)c(O)c1)O[C@@H]1C[C@](O)(C(=O)O)C[C@@H](O)[C@H]1O : 72%
Oc1cc(O)c2c(c1)O[C@H](c1ccc(O)c(O)c1)[C@H](O)[C@H]2c1c(O)cc(O)c2c1O[C@H](c1ccc(O)c(O)c1)[C@H](O)C2 : 62%

Please report the recorded remaining activity at 100 µM for O=c1c(O[C@@H]2O[C@H](CO)[C@@H](O)[C@H](O)[C@H]2O)c(-c2ccc(O)c(O)c2)oc2cc(O)cc(O)c12 [Q-3-glc, quercetin-3-O-glucoside] .
63%

Query: remaining activity at 100 µM; subject: Oc1cc(O)c2c(c1)O[C@H](c1ccc(O)c(O)c1)[C@H](O)C2 [EC, (−)-epicatechin]
78%

###

- Measured target: porcine pancreatic α-amylase (Sus scrofa, UniProt P00690)
- Procedure details: starch hydrolysis by α-amylase monitored by isothermal titration calorimetry (ITC)
- Format: biochemical
- Cond: uncompetitive inhibition constant; substrate starch, ITC; 100 μM polyphenol (EGCG 25 μM); read-out: Kiu
Below: a set of entries, each annotated with reported Ki.
Only the number, expressed in µM, is required.

O=C(/C=C/c1ccc(O)c(O)c1)O[C@@H]1C[C@](O)(C(=O)O)C[C@@H](O)[C@H]1O : 279

Which value of Ki has been reported for `Oc1cc(O)c2c(c1)O[C@H](c1ccc(O)c(O)c1)[C@H](O)[C@H]2c1c(O)cc(O)c2c1O[C@H](c1ccc(O)c(O)c1)[C@H](O)[C@H]2c1c(O)cc(O)c2c1O[C@H](c1ccc(O)c(O)c1)[C@H](O)C2` in the records?
103

Entry O=c1c(O[C@@H]2O[C@H](CO)[C@@H](O)[C@H](O)[C@H]2O)c(-c2ccc(O)c(O)c2)oc2cc(O)cc(O)c12 [Q-3-glc, quercetin-3-O-glucoside] has what Ki?
179
